- Target or system: recombinant human STIM1 and Orai1 (HEK-293 cells) (Homo sapiens)
- Construct: expressed in transfected cells; host or cells: HEK-293 cells stably expressing both proteins
- Test: Fluorescence-based assay of store-operated calcium entry in Orai1/STIM1 stable cells
- Assay type: cell-based
- Experimental parameters: FLIPR fluo-4, read-out: Orai1/STIM1 (IC50, μmol)
Reported IC50 values follow for various compounds

* Cc1noc(C)c1C(=O)Nc1cnc(-c2cc(C(F)(F)F)nn2C)cn1 | > 1200 nM
* Cc1cc2c(cc1-c1ccc(NC(=O)c3cccn3C)nc1)OC(F)(F)O2 | 600 to 1200 nM
* CCc1nnsc1C(=O)Nc1ccc(-c2cc3c(cc2Cl)OC(F)(F)O3)cn1 | < 600 nM

Here is another compound to look at.
In one line, give reported IC50 of the entry CCn1nccc1C(=O)Nc1ccc(-c2cc3c(cc2Cl)OC(F)(F)O3)cn1 . 600 to 1200 nM

###

Reported IC50 values follow for various compounds
- Target or system: recombinant human STIM1 and Orai1 (HEK-293 cells) (Homo sapiens)
- Test: Fluorescence-based assay of store-operated calcium entry in Orai1/STIM1 stable cells
- Experimental parameters: FLIPR fluo-4, read-out: Orai1/STIM1 (IC50, μmol)

In one line, give reported IC50 of the entry Cc1cc(C(=O)Nc2ccc(-c3cc4c(cc3Cl)OC(F)(F)O4)cn2)n(C)n1 . 0.6 to 1.2 µM

In one line, give reported IC50 of the entry Cc1cc(C(=O)Nc2cnc(-c3cc4c(cc3Cl)OC(F)(F)O4)cn2)n(C)n1 . 0.6 to 1.2 µM

###

- Target or system: recombinant human STIM1 and Orai1 (HEK-293 cells) (Homo sapiens, UniProt Q96D31)
- Construct: expressed in transfected cells; host or cells: HEK-293 cells stably expressing both proteins
- Sequence (Q96D31 whole entry): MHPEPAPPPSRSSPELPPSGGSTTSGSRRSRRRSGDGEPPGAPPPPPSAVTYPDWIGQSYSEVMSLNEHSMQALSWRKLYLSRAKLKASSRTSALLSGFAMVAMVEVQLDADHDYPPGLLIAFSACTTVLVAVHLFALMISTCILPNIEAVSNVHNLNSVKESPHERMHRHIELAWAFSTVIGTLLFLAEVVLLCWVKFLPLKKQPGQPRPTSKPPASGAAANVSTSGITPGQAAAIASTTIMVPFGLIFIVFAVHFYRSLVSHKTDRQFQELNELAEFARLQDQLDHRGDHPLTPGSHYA
- Test: Fluorescence-based assay of store-operated calcium entry in Orai1/STIM1 stable cells
- Format: cell-based
- Parameters: key: A < 0.6 μmol; 0.6 μmol ≦ B ≦ 1.2 μmol; C > 1.2 μmol; — = no fit
- Experimental parameters: FLIPR fluo-4
Property label: Orai1/STIM1 (IC50, μmol)

- Cn1cc(Cl)c(C(=O)Nc2cnc(-c3cc4c(cc3Cl)OC(F)(F)O4)cn2)n1: —
- O=C(Nc1ccc(-c2cc3c(cc2Cl)OC(F)(F)O3)cn1)c1nsc(Cl)c1Cl: —
- Cn1nc(C(F)(F)F)c(Cl)c1C(=O)Nc1ccc(-c2cc3c(cc2Cl)OC(F)(F)O3)cn1: —
- O=C(Nc1cnc(-c2cc3c(cc2Cl)OC(F)(F)O3)cn1)c1ccnn1C(F)F: —
- Cn1ncc(C(=O)Nc2cnc(-c3cc4c(cc3Cl)OC(F)(F)O4)cn2)c1C(F)(F)F: —
- Cc1cc2c(cc1-c1cnc(NC(=O)c3c(Cl)c(C)nn3C)cn1)OC(F)(F)O2: —
- Cn1nc(C(F)(F)F)c(Cl)c1C(=O)Nc1cnc(-c2cc3c(cc2Cl)OC(F)(F)O3)cn1: —
- Cc1nc(C(=O)Nc2ccc(-c3cc4c(cc3Cl)OC(F)(F)O4)cn2)c(C(F)(F)F)o1: —
- Cc1oncc1C(=O)Nc1ccc(-c2cc3c(cc2Cl)OC(F)(F)O3)cn1: —
- Cc1nn(C)c(C(=O)Nc2cnc(-c3cc4c(cc3Cl)OC(F)(F)O4)cn2)c1Cl: —

Jot down Orai1/STIM1 (IC50, μmol) (recombinant human STIM1 and Orai1 (HEK-293 cells) (Homo sapiens, UniProt Q96D31)) of Cc1oncc1C(=O)Nc1cnc(-c2cc3c(cc2Cl)OC(F)(F)O3)cn1 . —

Jot down Orai1/STIM1 (IC50, μmol) (recombinant human STIM1 and Orai1 (HEK-293 cells) (Homo sapiens, UniProt Q96D31)) of Cc1onc(C(=O)Nc2ccc(-c3cc4c(cc3Cl)OC(F)(F)O4)cn2)c1C . —

Jot down Orai1/STIM1 (IC50, μmol) (recombinant human STIM1 and Orai1 (HEK-293 cells) (Homo sapiens, UniProt Q96D31)) of Cn1ncc(C(=O)Nc2ccc(-c3cc4c(cc3Cl)OC(F)(F)O4)cn2)c1C(F)(F)F . —
